These data points were gathered from paper PMC4239318.

A collection of binders and their measured pIC50
subject_of_test: T1, RSV N(13-391), N-terminally truncated nucleocapsid protein (human respiratory syncytial virus, …, UniProt P03418 13-391)
T1 construct: source: E. coli BL21(DE3)pLysS, purified (Ni2+ chelating, Q-Sepharose, Superdex 200)
T1 sequence: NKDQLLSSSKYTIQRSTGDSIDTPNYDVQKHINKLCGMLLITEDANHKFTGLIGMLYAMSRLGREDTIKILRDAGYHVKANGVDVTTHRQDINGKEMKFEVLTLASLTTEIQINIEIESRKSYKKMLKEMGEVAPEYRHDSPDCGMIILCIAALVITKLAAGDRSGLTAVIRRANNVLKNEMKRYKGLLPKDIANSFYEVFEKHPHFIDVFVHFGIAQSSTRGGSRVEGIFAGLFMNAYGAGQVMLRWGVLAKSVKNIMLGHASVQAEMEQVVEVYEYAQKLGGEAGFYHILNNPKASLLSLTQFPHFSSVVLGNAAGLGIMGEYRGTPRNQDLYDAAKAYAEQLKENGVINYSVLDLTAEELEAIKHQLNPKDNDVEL
assay_info: fluorescence polarisation; fluorescence anisotropy, competition with 25 nM BP5 and 75 nM N(13-391), competitor varied; 10 mM Tris-HCl pH 7.5, 0.01% Brij-35; about 21 °C
condition_description: both partners purified
pIC50: −log10 of the molar value. Square brackets hold non-standard residues; d marks the D form. Ends that are not written are not given here. pS = N[C@@H](COP(=O)(O)O)C(=O)O
measured_property: pIC50

D[pS]DNDLSLEDF (residues 231-241 of RSV phosphoprotein P; N- and C-termini uncapped; source: synthetic peptide (Biopeptide Co.)) [D(pS)DNDLSLEDF (P C-terminal peptide phosphorylated on the N-terminal serine)] :: 5.66
DSDNDLSLEDF (residues 231-241 of RSV phosphoprotein P; N- and C-termini uncapped; source: synthetic peptide (Biopeptide Co.)) [peptide 1, DSDNDLSLEDF (unphosphorylated P C-terminal peptide)] :: 4.82
DSDNDL[pS]LEDF (residues 231-241 of RSV phosphoprotein P; N- and C-termini uncapped; source: synthetic peptide (Biopeptide Co.)) [DSDNDL(pS)LEDF (P C-terminal peptide phosphorylated on the C-terminal serine)] :: 5.82
